# study system: Delta opioid receptor (DOR)
# test summary: cell-based or functional assay
Square brackets hold non-standard residues; d marks the D form. Ends that are not written are not given here. Phe(4-NO2) = N[C@@H](Cc1ccc([N+](=O)[O-])cc1)C(=O)O; Phe(4-Cl) = N[C@@H](Cc1ccc(Cl)cc1)C(=O)O; Phe(4-F) = N[C@@H](Cc1ccc(F)cc1)C(=O)O; Api = NC1(C(=O)O)CCNCC1; NMA = N-methylarginine; Sar = CNCC(=O)O
Below is a list of entries, each paired with its recorded Activity (EC50, nM), cAMP assay value.

// below: answered binders
INSERT INTO results (binder, recorded_value) VALUES
  ('H-Y[Sar][Phe(4-Cl)]LR[dR] (not fully specified (C-terminus); printed as NH2-Tyr-Sar-(4-Cl)Phe-Leu-Arg-DArg-C7H14-COOH) [SEQ ID NO. 28: NH2-Tyr-Sar-(4-Cl)Phe-Leu-Arg-DArg-C7H14-COOH]', '> 10000 nM'),
  ('H-Y[Sar][Phe(4-Cl)]LX[dR]-NH2 (not fully specified (residue 5); printed as NH2-Tyr-Sar-(4-Cl)Phe-Leu-NMA-DArg-NH2) [SEQ ID NO. 13: NH2-Tyr-Sar-(4-Cl)Phe-Leu-NMA-DArg-NH2]', '> 10000 nM'),
  ('[dF][dF][dL][dK][Api]-OH (N-terminus assumed; SMILES CC(C)C[C@@H](NC(=O)[C@@H](Cc1ccccc1)NC(=O)[C@H](N)Cc1ccccc1)C(=O)N[C@H](CCCCN)C(=O)NC1(C(=O)O)CCNCC1) [CR845 (SEQ ID NO. 35: DPhe-DPhe-DLeu-DLys-Cap-CO2H)]', '> 10000 nM'),
  ('H-Y[Sar][Phe(4-NO2)]LR[dR]-NH2 [SEQ ID NO. 4: NH2-Tyr-Sar-(4-NO2)Phe-Leu-Arg-DArg-NH2]', '> 10000 nM'),
  ('H-Y[Sar][Phe(4-F)]LR[dR]-NH2 [SEQ ID NO. 12: NH2-Tyr-Sar-(4-F)Phe-Leu-Arg-DArg-NH2]', '> 10000 nM');

Request the reported Activity (EC50, nM), cAMP assay associated with H-Y[Sar][Phe(4-Cl)]LR[dR]IR-NH2 [SEQ ID NO. 20: NH2-Tyr-Sar-(4-Cl)Phe-Leu-Arg-DArg-Ile-Arg-NH2] 3580 nM

Could you do the same for H-Y[Sar]FLRR-NH2 [SEQ ID NO. 2: NH2-Tyr-Sar-Phe-Leu-Arg-Arg-NH2] , please? > 10000 nM

Could you do the same for H-Y[Sar][Phe(4-Cl)]LR[dR]I[dR]-NH2 [SEQ ID NO. 25: NH2-Tyr-Sar-(4-Cl)Phe-Leu-Arg-DArg-Ile-DArg-NH2] , please? > 10000 nM

Could you do the same for H-Y[Sar][Phe(4-Cl)]LR[dR]-{C7H14‑CONH2} [SEQ ID NO. 24: NH2-Tyr-Sar-(4-Cl)Phe-Leu-Arg-DArg-C7H14-CONH2] , please? > 10000 nM

Could you do the same for H-Y[Sar][Phe(4-F)]L[NMA][dR]-NH2 [SEQ ID NO. 14: NH2-Tyr-Sar-(4-F)Phe-Leu-NMA-DArg-NH2] , please? 1660 nM

Could you do the same for H-Y[Sar][Phe(4-NO2)]LR[dR]-{C7H14‑CONH2} [SEQ ID NO. 31: NH2-Tyr-Sar-(4-NO2)Phe-Leu-Arg-DArg-C7H14-CONH2] , please? > 10000 nM
